Task for the reader: assign each of the following compounds its reported IC50.
Molecular target: CDK2/Cyclin E1 (Homo sapiens, UniProt P24941)
Experiment: CDK2/Cyclin E1 Caliper LabChip EZ Reader mobility shift assay
Type: biochemical
Set-up: purchased Eurofins 14-475
Details: read-out: Caliper Assay (CDK2/CCNE1): IC50

# return IC50 of CNC(=O)[C@@H](NC(=O)[C@@H]1CN(C(=O)c2cnc(COC(C)(C)C)s2)CC12CN(C(=O)[C@H]1CC1(C)C)C2)[C@@H](C)OCC1CCCCC1 [I-175A] (system: CDK2/Cyclin E1 (Homo sapiens, UniProt P24941)) ≤ 10 nM

# return IC50 of C[C@@H](OCc1ccccc1)[C@H](NC(=O)[C@H]1CN(C(=O)c2cnn(Cc3ccccc3)c2)CC12CN(C(=O)[C@H]1CC1(C)C)C2)C(N)=O [I-176B] (system: CDK2/Cyclin E1 (Homo sapiens, UniProt P24941)) 1000 to 10000 nM

# return IC50 of C[C@@H](OCC1CCCCC1)[C@H](NC(=O)C1CN(C(=O)c2cnn(Cc3ccccc3)c2)CC12CN(C(=O)[C@H]1CC1(C)C)C2)C(=O)N1CCCC(CO)C1 (stereo partly drawn) [I-105] (system: CDK2/Cyclin E1 (Homo sapiens, UniProt P24941)) ≤ 10 nM

# return IC50 of CNC(=O)[C@@H](NC(=O)[C@@H]1CN(C(=O)c2cnn(Cc3ccccc3)c2)CC12CN(C(=O)C(C)(C)C)C2)[C@@H](C)OCC1CCCCC1 [I-174A] (system: CDK2/Cyclin E1 (Homo sapiens, UniProt P24941)) 10 to 100 nM

# return IC50 of CNC(=O)C(NC(=O)[C@@H]1CN(C(=O)c2cncs2)CC12CN(C(=O)[C@H]1CC1(C)C)C2)C(O)Cc1ccccc1 (stereo partly drawn) [I-356] (system: CDK2/Cyclin E1 (Homo sapiens, UniProt P24941)) > 10000 nM

# return IC50 of C[C@@H](OCC12CCC(CC1)OC2)[C@H](NC(=O)[C@@H]1CN(C(=O)c2cncs2)CC12CN(C(=O)[C@H]1CC1(C)C)C2)C(=O)N1CCC(OC(F)(F)F)CC1 [I-457] (system: CDK2/Cyclin E1 (Homo sapiens, UniProt P24941)) 10 to 100 nM

# return IC50 of C[C@@H](OC1(C2CCCCC2)CC1)[C@H](NC(=O)[C@@H]1CN(C(=O)c2cncs2)CC12CN(C(=O)[C@H]1CC1(C)C)C2)C(=O)N1CCCCC1 [I-357] (system: CDK2/Cyclin E1 (Homo sapiens, UniProt P24941)) 10 to 100 nM

# return IC50 of CNC(=O)[C@@H](NC(=O)[C@@H]1CN(C(=O)c2cncs2)CC12CN(C(=O)[C@H]1CC1(C)C)C2)[C@@H](C)OCC1CCCCC1 [I-129A] (system: CDK2/Cyclin E1 (Homo sapiens, UniProt P24941)) 10 to 100 nM

# return IC50 of CC1(C)C[C@@H]1C(=O)N1CC2(CN(C(=O)c3cnn(Cc4ccccc4)c3)C[C@H]2C(=O)N[C@H]2CCN(c3ccccc3)C2)C1 [I-206] (system: CDK2/Cyclin E1 (Homo sapiens, UniProt P24941)) 100 to 1000 nM

# return IC50 of CNC(=O)[C@@H](NC(=O)[C@H]1CN(C(=O)Nc2cnn(Cc3ccccc3)c2)CC12CN(C(=O)[C@H]1CC1(C)C)C2)[C@@H](C)OCc1ccccc1 [I-48B] (system: CDK2/Cyclin E1 (Homo sapiens, UniProt P24941)) > 10000 nM

# return IC50 of CNC(=O)[C@@H](NC(=O)[C@H]1CN(C(=O)c2cnn(Cc3ccccc3)c2)CC12CN(C(=O)c1ccccc1)C2)[C@@H](C)OCc1ccccc1 [I-26B] (system: CDK2/Cyclin E1 (Homo sapiens, UniProt P24941)) > 10000 nM

# return IC50 of CNC(=O)[C@@H](NC(=O)[C@@H]1CN(C(=O)c2cnn(Cc3ccccc3)c2)CC12CN(C(=O)[C@H]1CC1(C)C)C2)[C@@H](C)OC[C@H]1CC[C@H](OC)CC1 [I-403] (system: CDK2/Cyclin E1 (Homo sapiens, UniProt P24941)) 10 to 100 nM
